The entries below come with measured pIC50 values attached.
molecular target: Integrin alpha-V/beta-6 (Homo sapiens, UniProt P06756+P18564); assay: Inhibition of Integrin alphaV Beta6 receptor in HT29 cells by solid-phase receptor binding assay
Sequence (P06756 31-889 limits assumed): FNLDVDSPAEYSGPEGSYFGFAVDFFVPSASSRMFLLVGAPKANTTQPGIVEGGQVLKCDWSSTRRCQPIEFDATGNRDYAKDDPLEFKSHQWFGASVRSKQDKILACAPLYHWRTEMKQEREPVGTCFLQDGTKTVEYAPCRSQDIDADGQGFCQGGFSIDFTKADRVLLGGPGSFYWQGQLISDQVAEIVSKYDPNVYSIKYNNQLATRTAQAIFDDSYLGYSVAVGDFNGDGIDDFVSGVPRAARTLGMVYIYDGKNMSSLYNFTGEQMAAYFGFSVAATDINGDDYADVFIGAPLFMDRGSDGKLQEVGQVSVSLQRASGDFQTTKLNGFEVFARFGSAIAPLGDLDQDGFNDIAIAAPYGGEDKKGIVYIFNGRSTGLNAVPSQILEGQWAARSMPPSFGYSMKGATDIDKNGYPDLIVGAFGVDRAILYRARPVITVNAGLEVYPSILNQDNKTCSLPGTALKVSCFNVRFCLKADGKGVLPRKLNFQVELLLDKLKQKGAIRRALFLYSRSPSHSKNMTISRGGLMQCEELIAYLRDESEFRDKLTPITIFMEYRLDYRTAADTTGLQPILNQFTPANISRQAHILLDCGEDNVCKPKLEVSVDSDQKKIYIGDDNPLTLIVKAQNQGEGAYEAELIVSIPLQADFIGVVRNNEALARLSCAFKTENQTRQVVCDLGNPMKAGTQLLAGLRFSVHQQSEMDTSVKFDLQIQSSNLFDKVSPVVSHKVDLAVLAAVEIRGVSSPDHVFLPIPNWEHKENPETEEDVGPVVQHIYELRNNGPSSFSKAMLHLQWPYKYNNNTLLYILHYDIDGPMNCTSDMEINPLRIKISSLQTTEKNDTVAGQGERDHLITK
Sequence (P06756 891-1048 limits assumed): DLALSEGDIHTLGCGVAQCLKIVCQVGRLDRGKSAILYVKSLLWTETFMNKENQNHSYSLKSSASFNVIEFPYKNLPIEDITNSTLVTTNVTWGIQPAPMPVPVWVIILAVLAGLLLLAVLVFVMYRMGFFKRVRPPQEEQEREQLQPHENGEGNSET
Sequence (P18564 22-788 limits assumed): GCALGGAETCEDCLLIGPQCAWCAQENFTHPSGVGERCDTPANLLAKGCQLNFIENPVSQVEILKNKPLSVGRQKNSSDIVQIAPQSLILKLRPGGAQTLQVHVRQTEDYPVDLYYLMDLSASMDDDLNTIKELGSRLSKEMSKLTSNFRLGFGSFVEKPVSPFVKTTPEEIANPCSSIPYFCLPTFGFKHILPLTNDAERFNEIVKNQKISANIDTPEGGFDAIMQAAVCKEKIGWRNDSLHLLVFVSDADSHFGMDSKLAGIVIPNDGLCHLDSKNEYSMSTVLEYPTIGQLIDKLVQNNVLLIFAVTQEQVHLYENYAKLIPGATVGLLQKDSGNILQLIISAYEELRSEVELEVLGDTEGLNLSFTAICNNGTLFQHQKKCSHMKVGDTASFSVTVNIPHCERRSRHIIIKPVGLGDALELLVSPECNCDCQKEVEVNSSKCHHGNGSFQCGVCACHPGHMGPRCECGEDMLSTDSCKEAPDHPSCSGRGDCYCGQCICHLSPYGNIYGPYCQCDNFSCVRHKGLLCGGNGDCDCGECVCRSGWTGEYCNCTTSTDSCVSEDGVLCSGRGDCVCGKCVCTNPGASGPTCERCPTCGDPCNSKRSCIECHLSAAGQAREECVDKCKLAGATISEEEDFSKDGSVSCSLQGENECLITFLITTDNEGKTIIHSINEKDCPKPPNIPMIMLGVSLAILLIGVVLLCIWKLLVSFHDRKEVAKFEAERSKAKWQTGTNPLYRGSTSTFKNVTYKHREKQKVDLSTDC
In simple prose, pIC50 is minus the logarithm base ten of a concentration in moles per litre.

**Q:** Give recorded pIC50 with Integrin alpha-V/beta-6 (Homo sapiens, UniProt P06756+P18564) for the following compound: O=C(O)CC(Cc1csc(CCCc2ccc3c(n2)NCCC3)n1)c1ccc2c(c1)OCO2 (stereo unspecified)
**A:** 5.62

**Q:** Please provide the recorded pIC50 for COCc1ncc(C(CC(=O)O)Cc2csc(CCCc3ccc4c(n3)NCCC4)n2)s1 (stereo unspecified) , tested on Integrin alpha-V/beta-6 (Homo sapiens, UniProt P06756+P18564).
**A:** 6.08

**Q:** Look up pIC50 with Integrin alpha-V/beta-6 (Homo sapiens, UniProt P06756+P18564) for this compound: O=C(O)CC(Cc1csc(CCCc2ccc3c(n2)NCCC3)n1)c1cccc(F)c1 (stereo unspecified)
**A:** 5.88

**Q:** // fetch Integrin alpha-V/beta-6 (Homo sapiens, UniProt P06756+P18564) pIC50 for O=C(O)CC(Cc1csc(CCCc2ccc3c(n2)NCCC3)n1)c1ccc(F)c(F)c1 (stereo unspecified)
**A:** 5.67

**Q:** Entry O=C(O)CC(Cc1csc(CCCc2ccc3c(n2)NCCC3)n1)c1cnc(-c2ccc(Cl)cc2)s1 (stereo unspecified) , system Integrin alpha-V/beta-6 (Homo sapiens, UniProt P06756+P18564): what pIC50 was measured?
**A:** 5.37

**Q:** Return pIC50 measured with Integrin alpha-V/beta-6 (Homo sapiens, UniProt P06756+P18564) given this compound: COc1ccc(C(CC(=O)O)Cc2csc(CCCc3ccc4c(n3)NCCC4)n2)cn1 (stereo unspecified)
**A:** 5.88

**Q:** For Integrin alpha-V/beta-6 (Homo sapiens, UniProt P06756+P18564), provide pIC50 of COc1ccc(C(CC(=O)O)Cc2csc(CCCc3ccc4c(n3)NCCC4)n2)cc1F (stereo unspecified) please.
**A:** 5.49

**Q:** Write down the reported pIC50 of O=C(O)CC(Cc1csc(CCCc2ccc3c(n2)NCCC3)n1)c1cnc(C2CC2)s1 (stereo unspecified) , test system: Integrin alpha-V/beta-6 (Homo sapiens, UniProt P06756+P18564).
**A:** 6.50

**Q:** Test system Integrin alpha-V/beta-6 (Homo sapiens, UniProt P06756+P18564); read-out pIC50; what value for Cc1ccc(C(CC(=O)O)Cc2csc(CCCc3ccc4c(n3)NCCC4)n2)cc1 (stereo unspecified) ?
**A:** 5.30

**Q:** // lookup pIC50 | system=Integrin alpha-V/beta-6 (Homo sapiens, UniProt P06756+P18564) | key= COc1cc(OC)cc(C(CC(=O)O)Cc2csc(CCCc3ccc4c(n3)NCCC4)n2)c1 (stereo unspecified)
**A:** 5.76

###

molecular target: Integrin alpha-IIb/beta-3 (Homo sapiens, UniProt P05106+P08514); experiment: Inhibition of Integrin alphaIIb Beta3 receptor by solid-phase receptor binding assay
Sequence (P05106 27-788 limits assumed): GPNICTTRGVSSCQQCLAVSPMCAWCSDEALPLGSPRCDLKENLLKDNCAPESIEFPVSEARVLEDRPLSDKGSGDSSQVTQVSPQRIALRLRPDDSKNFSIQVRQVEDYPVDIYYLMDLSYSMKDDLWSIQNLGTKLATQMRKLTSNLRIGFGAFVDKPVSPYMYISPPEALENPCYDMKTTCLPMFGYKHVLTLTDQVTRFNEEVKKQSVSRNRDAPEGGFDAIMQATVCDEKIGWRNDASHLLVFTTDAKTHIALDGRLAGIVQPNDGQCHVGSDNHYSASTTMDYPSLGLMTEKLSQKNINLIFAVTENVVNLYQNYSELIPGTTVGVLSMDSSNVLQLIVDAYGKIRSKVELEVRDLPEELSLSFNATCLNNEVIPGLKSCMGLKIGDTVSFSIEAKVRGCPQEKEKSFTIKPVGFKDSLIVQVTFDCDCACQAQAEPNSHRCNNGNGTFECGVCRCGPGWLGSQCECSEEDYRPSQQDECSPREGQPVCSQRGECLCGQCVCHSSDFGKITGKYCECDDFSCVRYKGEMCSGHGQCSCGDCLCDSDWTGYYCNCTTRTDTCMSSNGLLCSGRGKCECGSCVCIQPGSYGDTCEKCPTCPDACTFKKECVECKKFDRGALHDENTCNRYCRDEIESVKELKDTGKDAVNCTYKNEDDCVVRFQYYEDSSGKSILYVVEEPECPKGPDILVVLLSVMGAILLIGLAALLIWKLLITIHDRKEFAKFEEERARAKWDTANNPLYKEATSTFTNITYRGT
Sequence (P08514 32-887 limits assumed): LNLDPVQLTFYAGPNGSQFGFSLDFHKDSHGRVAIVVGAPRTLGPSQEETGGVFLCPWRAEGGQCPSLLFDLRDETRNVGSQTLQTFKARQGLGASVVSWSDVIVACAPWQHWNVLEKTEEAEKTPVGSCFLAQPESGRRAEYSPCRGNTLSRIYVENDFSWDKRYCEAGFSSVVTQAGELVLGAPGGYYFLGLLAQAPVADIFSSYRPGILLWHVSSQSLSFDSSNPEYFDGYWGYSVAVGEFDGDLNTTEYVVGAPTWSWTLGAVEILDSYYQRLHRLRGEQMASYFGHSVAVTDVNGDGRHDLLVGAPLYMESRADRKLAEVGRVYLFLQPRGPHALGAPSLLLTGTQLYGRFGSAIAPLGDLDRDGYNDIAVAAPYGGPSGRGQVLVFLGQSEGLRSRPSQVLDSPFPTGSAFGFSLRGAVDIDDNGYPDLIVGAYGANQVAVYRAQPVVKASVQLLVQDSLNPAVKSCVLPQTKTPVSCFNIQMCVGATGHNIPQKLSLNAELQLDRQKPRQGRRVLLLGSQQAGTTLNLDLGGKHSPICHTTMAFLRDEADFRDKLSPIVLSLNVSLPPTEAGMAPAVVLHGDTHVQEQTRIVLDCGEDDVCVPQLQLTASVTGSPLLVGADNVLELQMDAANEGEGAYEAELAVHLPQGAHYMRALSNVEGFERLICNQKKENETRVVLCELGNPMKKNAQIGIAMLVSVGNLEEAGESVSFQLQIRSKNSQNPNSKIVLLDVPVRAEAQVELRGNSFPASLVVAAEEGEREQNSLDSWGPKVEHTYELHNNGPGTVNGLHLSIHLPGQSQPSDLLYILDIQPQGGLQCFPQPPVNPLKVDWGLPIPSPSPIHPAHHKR
Sequence (P08514 891-1039 limits assumed): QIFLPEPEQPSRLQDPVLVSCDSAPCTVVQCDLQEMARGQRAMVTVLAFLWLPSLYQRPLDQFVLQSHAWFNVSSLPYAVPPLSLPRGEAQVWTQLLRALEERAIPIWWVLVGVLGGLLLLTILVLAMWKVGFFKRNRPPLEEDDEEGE
RECORDED_ENDPOINT: IC50 (nM)
Numbers only; they are read as nM.

Known results for molecules:
O=C(O)CC(Cc1csc(CCCc2ccc3c(n2)NCCC3)n1)c1cnc(-c2ccccc2)s1 (stereo not given) ... 252
O=C(O)CC(Cc1csc(CCCc2ccc3c(n2)NCCC3)n1)c1ccc2c(c1)OCO2 (stereo not given) ... 263
COc1ccc(C(CC(=O)O)Cc2csc(CCCc3ccc4c(n3)NCCC4)n2)cc1F (stereo not given) ... 405
O=C(O)CC(Cc1csc(CCCc2ccc3c(n2)NCCC3)n1)c1ccc(Cl)cc1 (stereo not given) ... 636

**Q:** Dear colleague, I am looking for the recorded IC50 of the following molecule: O=C(O)CC(Cc1csc(CCCc2ccc3c(n2)NCCC3)n1)c1ccc(F)c(F)c1 (stereo not given)
**A:** 484

###

assay: Bioavailability in rat; format: ADME, organism-based; conditions: in vivo
Item-by-item account of bioavailability

A selection of reference data follows.
COc1ccc(C(CC(=O)O)Cc2csc(CCCc3ccc4c(n3)NCCC4)n2)cn1 (stereo not drawn) ... > 100%
O=C(O)CC(Cc1csc(CCCc2ccc3c(n2)NCCC3)n1)c1cnc(C2CC2)s1 (stereo not drawn) ... > 100%

Continue with the next molecule.
**Q:** Please look up its bioavailability: O=C(O)CC(Cc1csc(CCCc2ccc3c(n2)NCCC3)n1)c1ccc2c(c1)OCO2 (stereo not drawn)
**A:** > 100%
